- study target: T1, EcSufS, untagged (wild type) (Escherichia coli, UniProt P77444 1-406, PLP (pyridoxal 5'-phosphate) cofactor)
- T1 construct: EcSufS, cysteine desulfurase SufS of Escherichia coli, UniProt P77444; Untagged version used for crystallography and with the EcSufE variants; In samples with cysteine the active site cysteine is thought to carry a persulfide; also called SufSA; SufSB
- T1 sequence: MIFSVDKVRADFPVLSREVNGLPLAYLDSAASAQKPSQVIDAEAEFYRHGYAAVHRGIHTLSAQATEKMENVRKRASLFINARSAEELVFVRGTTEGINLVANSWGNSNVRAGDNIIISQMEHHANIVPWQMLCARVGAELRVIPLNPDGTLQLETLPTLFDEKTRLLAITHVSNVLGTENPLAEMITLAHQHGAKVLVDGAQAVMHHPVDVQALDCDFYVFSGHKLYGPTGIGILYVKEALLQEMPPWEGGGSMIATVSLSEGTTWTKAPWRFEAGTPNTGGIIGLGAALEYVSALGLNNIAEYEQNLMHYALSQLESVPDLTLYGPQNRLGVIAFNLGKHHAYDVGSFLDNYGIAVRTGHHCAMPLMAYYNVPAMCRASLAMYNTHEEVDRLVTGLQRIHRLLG
- assay explanation: fluorescence polarisation; 100 nM BODIPY-FL-labeled EcSufE titrated with EcSufS; 50 mM Mops pH 8.0, 150 mM NaCl, 0.1 mg/ml bovine serum albumin, 25 °C, 30 min; absence of cysteine; apparent KD
- condition description: both partners purified
Provide the reported pKd of each item.
Expect pKd as a plain number equal to -log10 of the molar concentration.

-- ask I would be grateful if you could share the reported pKd for BODIPY-FL-labeled R119A EcSufE in the C51A/E107C background (natural protein, Escherichia coli, BODIPY-FL maleimide label (labeling efficiency 60 to 80%), EcSufE of Escherichia coli, UniProt P76194, with C51A, E107C and R119A; also called R119A SufE; R119A EcSufE (in double mutant background); source: E. coli BL21(DE3)Δsuf, pET21, purified, labeled with BODIPY-FL maleimide) MALLPDKEKLLRNFLRCANWEEKYLYIIELGQRLPELRDEDRSPQNSIQGAQSQVWIVMRQNAQGIIELQGDSDAAIVKGLIAVVFILYDQMTPQDIVNFDVRPWFCKMALTQHLTPSASQGLEAMIRAIRAKAAALS .
-- reply 6.52

-- ask I would be grateful if you could share the reported pKd for BODIPY-FL-labeled Q121A EcSufE in the C51A/E107C background (natural protein, Escherichia coli, BODIPY-FL maleimide label (labeling efficiency 60 to 80%), EcSufE of Escherichia coli, UniProt P76194, with C51A, E107C and Q121A; also called Q121A SufE; source: E. coli BL21(DE3)Δsuf, pET21, purified, labeled with BODIPY-FL maleimide) MALLPDKEKLLRNFLRCANWEEKYLYIIELGQRLPELRDEDRSPQNSIQGAQSQVWIVMRQNAQGIIELQGDSDAAIVKGLIAVVFILYDQMTPQDIVNFDVRPWFCKMALTQHLTPSRSAGLEAMIRAIRAKAAALS .
-- reply 5.23

-- ask I would be grateful if you could share the reported pKd for BODIPY-FL-labeled Q121E EcSufE in the C51A/E107C background (natural protein, Escherichia coli, BODIPY-FL maleimide label (labeling efficiency 60 to 80%), EcSufE of Escherichia coli, UniProt P76194, with C51A, E107C and Q121E; also called Q121E SufE; source: E. coli BL21(DE3)Δsuf, pET21, purified, labeled with BODIPY-FL maleimide) MALLPDKEKLLRNFLRCANWEEKYLYIIELGQRLPELRDEDRSPQNSIQGAQSQVWIVMRQNAQGIIELQGDSDAAIVKGLIAVVFILYDQMTPQDIVNFDVRPWFCKMALTQHLTPSRSEGLEAMIRAIRAKAAALS .
-- reply 5.15

-- ask I would be grateful if you could share the reported pKd for BODIPY-FL-labeled T116S EcSufE in the C51A/E107C background (natural protein, Escherichia coli, BODIPY-FL maleimide label (labeling efficiency 60 to 80%), EcSufE of Escherichia coli, UniProt P76194, with C51A, E107C and T116S; also called T116S SufE; source: E. coli BL21(DE3)Δsuf, pET21, purified, labeled with BODIPY-FL maleimide) MALLPDKEKLLRNFLRCANWEEKYLYIIELGQRLPELRDEDRSPQNSIQGAQSQVWIVMRQNAQGIIELQGDSDAAIVKGLIAVVFILYDQMTPQDIVNFDVRPWFCKMALTQHLSPSRSQGLEAMIRAIRAKAAALS .
-- reply 5.66

-- ask I would be grateful if you could share the reported pKd for BODIPY-FL-labeled R119K EcSufE in the C51A/E107C background (natural protein, Escherichia coli, BODIPY-FL maleimide label (labeling efficiency 60 to 80%), EcSufE of Escherichia coli, UniProt P76194, with C51A, E107C and R119K; also called R119K SufE; source: E. coli BL21(DE3)Δsuf, pET21, purified, labeled with BODIPY-FL maleimide) MALLPDKEKLLRNFLRCANWEEKYLYIIELGQRLPELRDEDRSPQNSIQGAQSQVWIVMRQNAQGIIELQGDSDAAIVKGLIAVVFILYDQMTPQDIVNFDVRPWFCKMALTQHLTPSKSQGLEAMIRAIRAKAAALS .
-- reply 5.80
